target: soluble HLA-DR1 (DRA*0101, DRB1*0101) (Homo sapiens, UniProt P01903+P01911, A100R/D57E/F55L/F60I/F76Y/I96L/L162R/M171V/P40L/Q125E/R42F/V115G/Y59C); construct: Recombinant soluble HLA-DR1 (DRA*0101, DRB1*0101) (Sloan, V. S (1995) Nature 375, 802-806) was produced in S2 insect cells; made in house; host or cells: S2 insect cells; experiment: Peptide loading of soluble HLA-DR1 with HA306-318 (ELISA); type: biochemical; conditions: titrated amounts of dipeptide; 100nM HLA-DR1, phosphate-buffered saline pH 7.4, 37 °C, 1 h
RECORDED_ENDPOINT: complex formation between HA306-318 and soluble HLA-DR1 (catalytic activity)

| COMPOUND | RESULT |
| --- | --- |
| CC(=O)N[C@@H](Cc1ccc(O)cc1)C(=O)N[C@@H](CCCNC(=N)N)C(=O)O [Ac-YR] | partial effect |
| N=C(N)NCCC[C@H](NC(=O)[C@@H](N)Cc1ccc(O)cc1)C(N)=O [YR-NH2] | partial effect |
